Values from patent US20140148443A1

- subjectOfTest: recombinant GST-tagged MDM2 (Homo sapiens, UniProt Q00987)
- Sequence (Q00987 whole entry): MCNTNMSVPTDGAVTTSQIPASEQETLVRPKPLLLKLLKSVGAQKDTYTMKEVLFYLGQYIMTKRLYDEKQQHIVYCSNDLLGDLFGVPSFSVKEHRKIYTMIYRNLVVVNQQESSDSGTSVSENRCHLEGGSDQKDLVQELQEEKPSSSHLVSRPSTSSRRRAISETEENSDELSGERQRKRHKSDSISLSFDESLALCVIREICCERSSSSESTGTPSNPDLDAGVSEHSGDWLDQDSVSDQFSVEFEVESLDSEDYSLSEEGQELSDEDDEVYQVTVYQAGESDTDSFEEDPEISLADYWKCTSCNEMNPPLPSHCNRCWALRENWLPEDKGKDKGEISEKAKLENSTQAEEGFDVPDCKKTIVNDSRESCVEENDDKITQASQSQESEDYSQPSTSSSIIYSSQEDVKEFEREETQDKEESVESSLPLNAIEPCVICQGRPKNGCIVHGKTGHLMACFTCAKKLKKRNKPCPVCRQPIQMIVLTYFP
- assay: HTRF assay of interaction between p53 peptide and GST-tagged MDM2
- conditionInfo: inhibition of GST-MDM2 (160 ng/ml) binding to biotinylated p53-peptide
pIC50: −log10 of the molar value.
Given measured pIC50, output y if it is greater than or equal to 8 and n if not.

# example entries with known answers
smilesEntry	class
CCOc1cc(Cl)c(S(=O)(=O)NC(C)(C)C)cc1C1=N[C@@](C)(c2ccc(Cl)cc2)[C@@](C)(c2ccc(Cl)cc2)N1C(=O)N1CCN(C(=O)Cn2cnnn2)CC1	n
CCOc1cc(Cl)c(S(C)(=O)=O)cc1C1=N[C@@](C)(c2ccc(Cl)cc2)[C@@](C)(c2ccc(Cl)cc2)N1C(=O)N1CCN(CC(=O)N(CCOC)CCOC)CC1	y
CCOc1cc(Cl)c(S(C)(=O)=O)cc1C1=N[C@@](C)(c2ccc(Cl)cc2)[C@@](C)(c2ccc(Cl)cc2)N1C(=O)N1CCC(NC(=O)NC2CCCC2)CC1	y

[in] Is pIC50 at least 8? Consider CCOCCN(CCOCC)C(=O)CN1CCN(C(=O)N2C(c3cc(S(C)(=O)=O)c(Cl)cc3OCC)=N[C@@](C)(c3ccc(Cl)cc3)[C@@]2(C)c2ccc(Cl)cc2)CC1
[out] y

* * *

- subjectOfTest: recombinant GST-tagged MDM2 (Homo sapiens)
- assay: HTRF assay of interaction between p53 peptide and GST-tagged MDM2
- conditionInfo: inhibition of GST-MDM2 (160 ng/ml) binding to biotinylated p53-peptide
- Protocol: The ability of a test compound to inhibit the interaction between p53 and MDM2 protein was measured by an HTRF (homogeneous time-resolved fluorescence) assay in which recombinant GST-tagged MDM2 binds to a peptide that resembles the MDM2-interacting region of p53 Aca-[…]-OH hereinafter p53-peptide). […]
Consider the following compounds; for each one, report its pIC50.
One number for each entry, as −log10 of the molar value.

compound	pIC50
CC(C)Oc1cc(Cl)c(S(N)(=O)=O)cc1C1=N[C@@](C)(c2ccc(Cl)cc2)[C@@](C)(c2ccc(Cl)cc2)N1C(=O)N1CCC(CC(N)=O)CC1	8.21
C[C@@]1(c2ccc(Cl)cc2)N=C(c2cc(S(C)(=O)=O)c(Cl)cc2OCCF)N(C(=O)N2CCN(CCCS(C)(=O)=O)CC2)[C@]1(C)c1ccc(Cl)cc1	8.01
C[C@@]1(c2ccc(Cl)cc2)N=C(c2cc(S(C)(=O)=O)c(Cl)cc2OCC2CC2)N(C(=O)N2CCN(CCCS(C)(=O)=O)CC2)[C@]1(C)c1ccc(Cl)cc1	7.90
CCOc1cc(Cl)c(S(=O)(=O)NC(C)(C)C)cc1C1=N[C@@](C)(c2ccc(Cl)cc2)[C@@](C)(c2ccc(Cl)cc2)N1C(=O)N1CCN(CC(=O)NCC2CCCO2)CC1 (mixture of isomers)	7.93
CCOc1cc(Cl)c(S(=O)(=O)NC(C)(C)C)cc1C1=N[C@@](C)(c2ccc(Cl)cc2)[C@@](C)(c2ccc(Cl)cc2)N1C(=O)N1CCN(CC(=O)NCCOC)CC1	8.06
CCOc1cc(Cl)c(S(=O)(=O)N2CCCC2)cc1C1=N[C@@](C)(c2ccc(Cl)cc2)[C@@](C)(c2ccc(Cl)cc2)N1C(=O)N1CCC(CC(N)=O)CC1	8.07
CCOc1cc(Cl)c(S(C)(=O)=O)cc1C1=N[C@@](C)(c2ccc(Cl)cc2)[C@@](C)(c2ccc(Cl)cc2)N1C(=O)N1CCN(C[C@H](O)CO)CC1	8.27
CCOc1cc(Cl)c(S(=O)(=O)N2CCOCC2)cc1C1=N[C@@](C)(c2ccc(Cl)cc2)[C@@](C)(c2ccc(Cl)cc2)N1C(=O)N1CCN(CCCS(C)(=O)=O)CC1	7.40

Each of the following entries comes with a recorded value; kindly state pIC50 for each.
1. CCOc1cc(Cl)c(S(C)(=O)=O)cc1C1=N[C@@](C)(c2ccc(Cl)cc2)[C@@](C)(c2ccc(Cl)cc2)N1C(=O)N1CCC(CS(C)(=O)=O)CC1
2. CCOc1cc(Cl)c(S(C)(=O)=O)cc1C1=N[C@@](C)(c2ccc(Cl)cc2)[C@@](C)(c2ccc(Cl)cc2)N1C(=O)N1CCN(CC(=O)N2CCOCC2)CC1
3. CC(C)Oc1cc(Cl)c(S(C)(=O)=O)cc1C1=N[C@@](C)(c2ccc(Cl)cc2)[C@@](C)(c2ccc(Cl)cc2)N1C(=O)N1CCN(CCCS(C)(=O)=O)CC1

[out]
[8.24, 8.28, 8.21]

* * *

Consider the following compounds; for each one, report its pIC50.
- subjectOfTest: GST-tagged MDMX (Homo sapiens)
- Sequence (O15151 1-490): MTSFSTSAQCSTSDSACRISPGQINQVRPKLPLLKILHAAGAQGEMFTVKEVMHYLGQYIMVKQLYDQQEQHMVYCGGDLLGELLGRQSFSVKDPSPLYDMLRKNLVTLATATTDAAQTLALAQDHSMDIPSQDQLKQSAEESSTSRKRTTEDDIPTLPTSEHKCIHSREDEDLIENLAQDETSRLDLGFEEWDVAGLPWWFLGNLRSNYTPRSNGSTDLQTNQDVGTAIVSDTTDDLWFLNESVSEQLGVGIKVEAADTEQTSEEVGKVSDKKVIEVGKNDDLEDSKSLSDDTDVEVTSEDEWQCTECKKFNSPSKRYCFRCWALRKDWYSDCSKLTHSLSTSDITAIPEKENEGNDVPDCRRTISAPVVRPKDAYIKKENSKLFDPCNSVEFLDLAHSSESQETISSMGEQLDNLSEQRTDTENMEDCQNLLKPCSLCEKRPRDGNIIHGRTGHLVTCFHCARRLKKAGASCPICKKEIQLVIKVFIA
Give bare numbers, as −log10 of the molar value.

Reference set (5 entries):
> print(dat)
                                smilesentry  recordedmeasurement
1  CCOc1cc(Cl)c(S(C)(=O)=O)cc1C1=N[C@@](C)(c2ccc(Cl)cc2)[C@@](C)(c2ccc(Cl)cc2)N1C(=O)N1CCN(CC(=O)N(CCOC)CCOC)CC1                 5.94
2  CCOc1cc(Cl)c(S(C)(=O)=O)cc1C1=N[C@@](C)(c2ccc(Cl)cc2)[C@@](C)(c2ccc(Cl)cc2)N1C(=O)N1CCC(CC(=O)N(CCOC)CCOC)CC1                 5.82
3  CCOc1cc(Cl)c(S(=O)(=O)NC(C)(C)C)cc1C1=N[C@@](C)(c2ccc(Cl)cc2)[C@@](C)(c2ccc(Cl)cc2)N1C(=O)N1CCN(CCOCCO)CC1                 5.74
4  CCOc1cc(Cl)c(S(C)(=O)=O)cc1C1=N[C@@](C)(c2ccc(Cl)cc2)[C@@](C)(c2ccc(Cl)cc2)N1C(=O)N1CCN(CC(=O)N(CCOC(C)C)CCOC(C)C)CC1                 5.73
5  CCOc1cc(Cl)c(S(C)(=O)=O)cc1C1=N[C@@](C)(c2ccc(Cl)cc2)[C@@](C)(c2ccc(Cl)cc2)N1C(=O)N1CCC(CCS(C)(=O)=O)CC1                 5.86

Each of the following entries comes with a recorded value; kindly state pIC50 for each.
1. CCOc1cc(Cl)c(S(C)(=O)=O)cc1C1=N[C@@](C)(c2ccc(Cl)cc2)[C@@](C)(c2ccc(Cl)cc2)N1C(=O)N1CCN(CC(N)=O)CC1
2. CCOc1cc(Cl)c(S(C)(=O)=O)cc1C1=N[C@@](C)(c2ccc(Cl)cc2)[C@@](C)(c2ccc(Cl)cc2)N1C(=O)N1CCC(O)CC1
3. CCOc1cc(Cl)c(S(=O)(=O)NC(C)(C)C)cc1C1=N[C@@](C)(c2ccc(Cl)cc2)[C@@](C)(c2ccc(Cl)cc2)N1C(=O)N1CCN(CC(=O)N2CCN(C)CC2)CC1
4. CC(C)Oc1cc(Cl)c(S(C)(=O)=O)cc1C1=N[C@@](C)(c2ccc(Cl)cc2)[C@@](C)(c2ccc(Cl)cc2)N1C(=O)N1CCN(CCCS(C)(=O)=O)CC1
5. CCOc1cc(Cl)c(S(=O)(=O)N2CCCC2)cc1C1=N[C@@](C)(c2ccc(Cl)cc2)[C@@](C)(c2ccc(Cl)cc2)N1C(=O)N1CCC(CC(N)=O)CC1

[out]
1. 5.92
2. 5.54
3. 5.97
4. 6.54
5. 5.46

[in] GET /values?readout=pIC50&item= CCNC(=O)NC1CCN(C(=O)N2C(c3cc(S(C)(=O)=O)c(Cl)cc3OCC)=N[C@@](C)(c3ccc(Cl)cc3)[C@@]2(C)c2ccc(Cl)cc2)CC1
[out] 6.01

* * *

- subjectOfTest: GST-tagged MDMX (Homo sapiens)
Consider the following compounds; for each one, report its IC50.
Answers are plain numbers, in nM.

compound	subjectOfTest	recordedMeasurement
CCOc1cc(Cl)c(S(C)(=O)=O)cc1C1=N[C@@](C)(c2ccc(Cl)cc2)[C@@](C)(c2ccc(Cl)cc2)N1C(=O)N1CCC2(CCN(CCS(=O)(=O)CC)CC2)CC1	GST-tagged MDMX (Homo sapiens)	1490

Each of the following entries comes with a recorded value; kindly state IC50 for each.
1. CCOc1cc(Cl)c(S(=O)(=O)NC(C)(C)C)cc1C1=N[C@@](C)(c2ccc(Cl)cc2)[C@@](C)(c2ccc(Cl)cc2)N1C(=O)N1CCCC(O)C1 (stereo partly drawn)
2. CCOc1cc(Cl)c(S(C)(=O)=O)cc1C1=N[C@@](C)(c2ccc(Cl)cc2)[C@@](C)(c2ccc(Cl)cc2)N1C(=O)N1CCNC(=O)C1

[out]
1: 4000; 2: 1080
